tested on: HUVEC; test: cells; settings: Homo sapiens, 3 h
Description: Antiangiogenic activity in HUVEC assessed as inhibition of VEGF-induced cell proliferation by [3H]thymidine incorporation assay
I'd be grateful if you could share measured pEC50 for these entries.
Conceptually, pEC50 converts a concentration in mol/L into minus its log10.

Form field: reported pEC50 of NC(=O)c1ccc2c(c1)NC(=O)/C2=C(\Nc1ccc(CN2CCCCC2)cc1)c1ccccc1
6.47

Form field: reported pEC50 of COC(=O)c1ccc2c(c1)NC(=O)/C2=C(\Nc1ccc(N(CC(=O)N(C)C)C(C)=O)cc1)c1ccccc1
7.43

Form field: reported pEC50 of CCN(C)C(=O)c1ccc2c(c1)NC(=O)/C2=C(\Nc1ccc(CN2CCCCC2)cc1)c1ccccc1
6.14

Form field: reported pEC50 of CCOC(=O)c1ccc2c(c1)NC(=O)/C2=C(\Nc1ccc(CN2CCCCC2)cc1)c1ccccc1
7.33

Form field: reported pEC50 of CNC(=O)c1ccc2c(c1)NC(=O)/C2=C(\Nc1ccc(CN2CCCCC2)cc1)c1ccccc1
5.72

Form field: reported pEC50 of CN(C)C(=O)c1ccc2c(c1)NC(=O)/C2=C(\Nc1ccc(CN2CCCCC2)cc1)c1ccccc1
6.27

Form field: reported pEC50 of COC(=O)c1ccc2c(c1)NC(=O)/C2=C(\Nc1ccc(CN2CCCCC2)cc1)c1ccccc1
6.99

Form field: reported pEC50 of COC(=O)c1ccc2c(c1)NC(=O)/C2=C(\Nc1ccc(NC(=O)CN(C)C)cc1)c1ccccc1
7.06
